These measurements were taken from patent US20180244785A1.

Biological target: T1, recombinant human FGFR4 Fc fusion (human, UniProt P22455 144-369)
T1 construct: 19 used; also called FGFR4c; not shown: Fc part of the FGFR-Fc fusion
T1 sequence: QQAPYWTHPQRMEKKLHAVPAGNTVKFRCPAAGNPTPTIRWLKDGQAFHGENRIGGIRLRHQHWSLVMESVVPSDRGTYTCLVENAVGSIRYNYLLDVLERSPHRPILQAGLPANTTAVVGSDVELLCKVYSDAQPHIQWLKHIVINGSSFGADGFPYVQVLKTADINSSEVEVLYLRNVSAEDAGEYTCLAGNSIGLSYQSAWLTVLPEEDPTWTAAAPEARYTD
Assay: ELISA, scFv on coated FGFR-Fc
Consider the following binders and their measured EC50 readings.
Lab book: enter the figure in nM, no units written.

// below: answered binders
binder: Ab3 (scFv format) (scFv, also called FGF#78) scFv: EVQLVESGGGVVQPGRSLRLSCAASGFTFSQYSMHWVRQSPGKGLEWVTLISFDGADKYYADSVKGRFTISRDNSNDTLFLHMNGLRVEDTAIYYCVRGAGRGYTYGPDGFDIWGQGTMVTVSSASTGGGGSGGGGSGGGGSGGGGSDIQLTQSPSSLSASVGDRVTITCRTSQTISRYLNWYQQQPGKAPKLLIYTATSLQSGVPSRFSGSGSGTDFTLTIGGLQPEDFAIYFCQQTYSAPLTFGGGTKVEIKRTVAAPSHHHHHH
EC50 [nM]: 1.07

binder: Ab15 (scFv format) (scFv, also called FGF#26) scFv: EVQLLESGGGVVQPGRSLRLSCAASGFTFSSYAMHWVRQAPGKGLEWVAVISYDGSNKYYADSVKGRFTISRDNSKNTLSLQMNSLRVEDTAIYYCVRGAGRGYTYGPDGFDIWGQGTMVTVSSASTGGGGSGGGGSGGGGSGGGGSDIVMTQTPLSLSVTPGQPASISCTSSRSLLHSDGKTYVYWYVQKSGQPPQLLIYELSNRFSGVPDRFSGSGSRTDFTLKISRVEAEDVGVYYCMQYIEAPLTFGGGTKVEIKRTVAAPSHHHHHH
EC50 [nM]: 0.312

Here's the next entry for you.
Notebook: Ab7 (scFv format) (scFv, also called FGF#51) scFv: QVQLVESGGGVVQPGRSLRLSCAASGFTFSGYAIHWVRQAPGKGLEWVALISYDGSNKYYADSAKGRFTISRDNSKNTLSLQMNSLRVEDTAIYYCVRGAGRGYTYGPDGFDIWGQGTMVTVSSASTGGGGSGGGGSGGGGSGGGGSDIVMTQTPLSSPVTLGQPASISCRSSESLVYRDGNTYLSWLHQRPGQSPRLLIYKVSNRFSGVPDRFSGSGAGTDFTLKISRVEAEDVGVYFCMQATQFPWTFGQGTKVEIKRTVAAPSHHHHHH , EC50 read as 0.278
